- Tested Target: Melanocortin receptor (M3 and M4) (Homo sapiens) (UniProt P32245+P41968)
- Assay Text: Ratio of EC50 of Melanocortin 4 receptor to that of Melanocortin 3 receptor
- Assay type: protein assay
Endpoint Name: Ratio

>  <Molecule>
C=CCNC(=O)N[C@@H](Cc1ccc(Cl)cc1)C(=O)NC(Cc1ccccc1)C(=O)N[C@@H](CCCNC(=N)N)C(=O)N[C@@H](Cc1c[nH]c2ccccc12)C(N)=O (stereo in doubt)

>  <Ratio>
4

$$$$

P. N=C(N)NCCC[C@H](NC(=O)C(Cc1ccccc1)NC(=O)[C@H](Cc1ccc(Cl)cc1)NC(=O)CCC(=O)c1cc(F)cc(F)c1)C(=O)N[C@@H](Cc1c[nH]c2ccccc12)C(N)=O (stereo in doubt)
Q. CN(C)C(=O)N[C@@H](Cc1ccc(Cl)cc1)C(=O)NC(Cc1ccccc1)C(=O)N[C@@H](CCCN=C(N)N)C(=O)N[C@@H](Cc1c[nH]c2ccccc12)C(N)=O (stereo in doubt)
R. N=C(N)NCCC[C@H](NC(=O)C(Cc1ccccc1)NC(=O)[C@H](Cc1ccc(Cl)cc1)NC(=O)CCc1ccccc1)C(=O)N[C@@H](Cc1c[nH]c2ccccc12)C(N)=O (stereo in doubt)
S. N=C(N)NCCC[C@H](NC(=O)C(Cc1ccccc1)NC(=O)[C@H](Cc1ccc(Cl)cc1)NC(=O)c1ccncc1)C(=O)N[C@@H](Cc1c[nH]c2ccccc12)C(N)=O (stereo in doubt)
Please give the order of these molecules when sorted by Ratio, largest value leading. Sort and list the labels as requested.
S, Q, P, R
(S: 33, Q: 4, P: 1.5, R: 1)

---

- Tested Target: Melanocortin receptor 3 (Homo sapiens)
- Sequence (P41968 whole entry): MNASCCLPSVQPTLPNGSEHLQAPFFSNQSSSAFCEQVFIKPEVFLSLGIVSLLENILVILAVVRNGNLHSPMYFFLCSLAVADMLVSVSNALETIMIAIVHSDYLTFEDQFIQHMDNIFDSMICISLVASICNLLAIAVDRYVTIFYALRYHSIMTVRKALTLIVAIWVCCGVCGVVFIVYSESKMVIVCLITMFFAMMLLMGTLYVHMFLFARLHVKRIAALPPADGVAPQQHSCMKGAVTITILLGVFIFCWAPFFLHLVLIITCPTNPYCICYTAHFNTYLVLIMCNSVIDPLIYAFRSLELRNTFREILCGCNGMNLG
- Assay Text: Agonistic activity against human Melanocortin 3 receptor
Endpoint Name: EC50 (µM)

Example entries and their recorded answers appear below.
>  <Compound>
CSCC(=O)N[C@@H](Cc1ccc(Cl)cc1)C(=O)NC(Cc1ccccc1)C(=O)N[C@@H](CCCN=C(N)N)C(=O)N[C@@H](Cc1c[nH]c2ccccc12)C(N)=O (stereo in doubt)

>  <EC50 / µM>
1.02

$$$$
>  <Compound>
N=C(N)NCCC[C@H](NC(=O)C(Cc1ccccc1)NC(=O)[C@H](Cc1ccc(Cl)cc1)NS(=O)(=O)C(F)(F)F)C(=O)N[C@@H](Cc1c[nH]c2ccccc12)C(N)=O (stereo in doubt)

>  <EC50 / µM>
1.67

$$$$
>  <Compound>
COCC(=O)N[C@@H](Cc1ccc(Cl)cc1)C(=O)NC(Cc1ccccc1)C(=O)N[C@@H](CCCN=C(N)N)C(=O)N[C@@H](Cc1c[nH]c2ccccc12)C(N)=O (stereo in doubt)

>  <EC50 / µM>
0.961

$$$$
>  <Compound>
N=C(N)NCCC[C@H](NC(=O)C(Cc1ccccc1)NC(=O)[C@H](Cc1ccc(Cl)cc1)NC(=O)COc1ccccc1)C(=O)N[C@@H](Cc1c[nH]c2ccccc12)C(N)=O (stereo in doubt)

>  <EC50 / µM>
0.859

$$$$
>  <Compound>
N=C(N)NCCC[C@H](NC(=O)C(Cc1ccccc1)NC(=O)[C@H](Cc1ccc(Cl)cc1)NC(=O)c1ccsc1)C(=O)N[C@@H](Cc1c[nH]c2ccccc12)C(N)=O (stereo in doubt)

>  <EC50 / µM>
0.674

$$$$

P. N=C(N)NCCC[C@H](NC(=O)C(Cc1ccccc1)NC(=O)[C@H](Cc1ccc(Cl)cc1)NC(=O)c1c(F)c(F)c(F)c(F)c1F)C(=O)N[C@@H](Cc1c[nH]c2ccccc12)C(N)=O (stereo in doubt)
Q. N=C(N)NCCC[C@H](NC(=O)C(Cc1ccccc1)NC(=O)[C@H](Cc1ccc(Cl)cc1)NC(=O)c1ccccn1)C(=O)N[C@@H](Cc1c[nH]c2ccccc12)C(N)=O (stereo in doubt)
R. N=C(N)NCCC[C@H](NC(=O)C(Cc1ccccc1)NC(=O)[C@H](Cc1ccc(Cl)cc1)NC(=O)CCC(=O)c1ccc(F)cc1)C(=O)N[C@@H](Cc1c[nH]c2ccccc12)C(N)=O (stereo in doubt)
Arrange the 3 entries by EC50 so the values rise. Sort and list the labels as requested.
R, Q, P
(R: 0.203 µM, Q: 0.452 µM, P: 1.34 µM)

---

- Tested Target: Melanocortin receptor (M1 and M4) (Homo sapiens) (UniProt P32245+Q01726)
- Assay Text: Ratio of EC50 of Melanocortin 4 receptor to that of Melanocortin 1 receptor
- Format: protein assay
Endpoint Name: Ratio

Example entries and their recorded answers appear below.
>  <Compound>
N=C(N)NCCC[C@H](NC(=O)C(Cc1ccccc1)NC(=O)[C@H](Cc1ccc(Cl)cc1)NS(=O)(=O)C(F)(F)F)C(=O)N[C@@H](Cc1c[nH]c2ccccc12)C(N)=O (stereo in doubt)

>  <Ratio>
0.5

$$$$
>  <Compound>
N=C(N)NCCC[C@H](NC(=O)C(Cc1ccccc1)NC(=O)[C@H](Cc1ccc(Cl)cc1)NC(=O)CCCC(=O)c1ccccc1)C(=O)N[C@@H](Cc1c[nH]c2ccccc12)C(N)=O (stereo in doubt)

>  <Ratio>
0.4

$$$$
>  <Compound>
N=C(N)NCCC[C@H](NC(=O)C(Cc1ccccc1)NC(=O)[C@H](Cc1ccc(Cl)cc1)NC(=O)c1ccccn1)C(=O)N[C@@H](Cc1c[nH]c2ccccc12)C(N)=O (stereo in doubt)

>  <Ratio>
30

$$$$
>  <Compound>
N=C(N)NCCC[C@H](NC(=O)C(Cc1ccccc1)NC(=O)[C@H](Cc1ccc(Cl)cc1)NC(=O)Nc1ccccc1)C(=O)N[C@@H](Cc1c[nH]c2ccccc12)C(N)=O (stereo in doubt)

>  <Ratio>
7

$$$$
>  <Compound>
CC(=O)N[C@@H](Cc1c[nH]cn1)C(=O)NC(Cc1ccccc1)C(=O)NC(Cc1ccccc1)C(=O)N[C@@H](CCCN=C(N)N)C(=O)N[C@@H](Cc1c[nH]c2ccccc12)C(N)=O (stereo in doubt)

>  <Ratio>
0.1

$$$$

A. N=C(N)NCCC[C@H](NC(=O)C(Cc1ccccc1)NC(=O)[C@H](Cc1ccc(Cl)cc1)NC(=O)CC(N)=O)C(=O)N[C@@H](Cc1c[nH]c2ccccc12)C(N)=O (stereo in doubt)
B. N=C(N)NCCC[C@H](NC(=O)C(Cc1ccccc1)NC(=O)[C@H](Cc1ccc(Cl)cc1)NC(=O)c1ccccc1)C(=O)N[C@@H](Cc1c[nH]c2ccccc12)C(N)=O (stereo in doubt)
C. N=C(N)NCCC[C@H](NC(=O)C(Cc1ccccc1)NC(=O)[C@H](Cc1ccc(Cl)cc1)NC(=O)c1ccsc1)C(=O)N[C@@H](Cc1c[nH]c2ccccc12)C(N)=O (stereo in doubt)
Arrange the 3 entries by Ratio so the values rise. Sort and list the labels as requested.
B, C, A
(B: 5, C: 25, A: 41)

1. N=C(N)NCCC[C@H](NC(=O)C(Cc1ccccc1)NC(=O)[C@H](Cc1ccc(Cl)cc1)NC(=O)COc1ccccc1)C(=O)N[C@@H](Cc1c[nH]c2ccccc12)C(N)=O (stereo in doubt)
2. CCCC(=O)N[C@@H](Cc1ccc(Cl)cc1)C(=O)NC(Cc1ccccc1)C(=O)N[C@@H](CCCN=C(N)N)C(=O)N[C@@H](Cc1c[nH]c2ccccc12)C(N)=O (stereo in doubt)
Which has the smaller recorded Ratio, 1 or 2 ? Record your answer as the label of the chosen record.
1

P. N=C(N)NCCC[C@H](NC(=O)C(Cc1ccccc1)NC(=O)[C@H](Cc1ccc(Cl)cc1)NC(=O)CO)C(=O)N[C@@H](Cc1c[nH]c2ccccc12)C(N)=O (stereo in doubt)
Q. N#CCC(=O)N[C@@H](Cc1ccc(Cl)cc1)C(=O)NC(Cc1ccccc1)C(=O)N[C@@H](CCCNC(=N)N)C(=O)N[C@@H](Cc1c[nH]c2ccccc12)C(N)=O (stereo in doubt)
Determine, for P and Q , which has the greater value of Ratio. Record your answer as the label of the chosen record.
Q
(Q: 54, P: 4)

---

- Tested Target: Melanocortin receptor 3 (Homo sapiens)
- Assay Text: Agonistic activity against human Melanocortin 3 receptor
pEC50: −log10 of the molar value.
Endpoint Name: pEC50

>  <Compound>
N=C(N)NCCC[C@H](NC(=O)C(Cc1ccccc1)NC(=O)C(Cc1ccccc1)NC(=O)[C@H](Cc1c[nH]cn1)NC(=O)CCCC(=O)c1ccccc1)C(=O)N[C@@H](Cc1c[nH]c2ccccc12)C(N)=O (stereo in doubt)

>  <pEC50>
8.52

$$$$

P. CCCC(=O)N[C@@H](Cc1ccc(Cl)cc1)C(=O)NC(Cc1ccccc1)C(=O)N[C@@H](CCCN=C(N)N)C(=O)N[C@@H](Cc1c[nH]c2ccccc12)C(N)=O (stereo in doubt)
Q. CCCCC(=O)N[C@@H](Cc1ccc(Cl)cc1)C(=O)NC(Cc1ccccc1)C(=O)N[C@@H](CCCN=C(N)N)C(=O)N[C@@H](Cc1c[nH]c2ccccc12)C(N)=O (stereo in doubt)
Determine, for P and Q , which has the greater value of pEC50. Record your answer as the label of the chosen record.
Q
(Q: 6.34, P: 6.08)

1. N=C(N)NCCC[C@H](NC(=O)C(Cc1ccccc1)NC(=O)[C@H](Cc1ccc(Cl)cc1)NC(=O)c1cccs1)C(=O)N[C@@H](Cc1c[nH]c2ccccc12)C(N)=O (stereo in doubt)
2. CNC(=O)N[C@@H](Cc1ccc(Cl)cc1)C(=O)NC(Cc1ccccc1)C(=O)N[C@@H](CCCN=C(N)N)C(=O)N[C@@H](Cc1c[nH]c2ccccc12)C(N)=O (stereo in doubt)
Which has the smaller recorded pEC50, 1 or 2 ? Record your answer as the label of the chosen record.
1
(1: 6.19, 2: 7.06)
